From: patent US7407939

molecular target: protein kinase B (UniProt P31749); assay: cell-based or functional assay
Sequence (P31749 whole entry): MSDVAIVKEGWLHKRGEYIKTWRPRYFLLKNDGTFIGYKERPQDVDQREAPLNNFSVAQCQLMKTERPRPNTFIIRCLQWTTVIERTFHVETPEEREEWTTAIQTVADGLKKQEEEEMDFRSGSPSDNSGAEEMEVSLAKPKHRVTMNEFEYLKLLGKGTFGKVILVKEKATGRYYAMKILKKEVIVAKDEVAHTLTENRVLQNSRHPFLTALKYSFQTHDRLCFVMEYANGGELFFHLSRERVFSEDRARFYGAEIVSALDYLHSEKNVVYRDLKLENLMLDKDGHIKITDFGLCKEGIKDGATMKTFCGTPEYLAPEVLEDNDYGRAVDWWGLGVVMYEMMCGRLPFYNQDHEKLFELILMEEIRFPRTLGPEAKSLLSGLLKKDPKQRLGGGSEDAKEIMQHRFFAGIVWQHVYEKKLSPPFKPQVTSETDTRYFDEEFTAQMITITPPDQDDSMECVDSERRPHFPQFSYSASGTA
Where no end group is shown, it is not given here. Side-chain parts run from the residue outwards. [ ]: non-standard residue; d: D form. The star is where a group is joined. X1 = 5‑aminoethylsulfonamide isoquinoline, O=S(=O)(NCCN*)c1cccc2cnccc12; Nle = CCCC[C@H](N)C(=O)O; Orn = NCCC[C@H](N)C(=O)O; Dab = NCC[C@H](N)C(=O)O; βAla = NCCC(=O)O
value_type: % inhibition of kinase activity at 1 µM; PKB-kinase (spa) Assay 1 (%)

Q: % inhibition of kinase activity at 1 µM; PKB-kinase (spa) Assay 1 for RPR[Orn]E(X1)[Orn]F (not fully specified (C-terminus)) [TY-60020-11] ?
A: 58

1: RPR[Nle]E([βAla-X1])AF (not fully specified (C-terminus)) [TY-60020-93]
2: RPR[Orn]E(X1)[Dab]F (not fully specified (C-terminus)) [TY-60020-9]
Q: Which shows the larger % inhibition of kinase activity at 1 µM; PKB-kinase (spa) Assay 1 value: 1 or 2 ? Mark your selection by writing its label.
A: 2
